Origin of the recorded values: patent US20240247030A1

- Tested on: L540cy Hodgkin lymphoma cells
- MEASUREMENT PROTOCOL: In vitro cytotoxicity (CellTiter-Glo, 96 h)
- Format: cell-based
- MEASUREMENT PARAMETERS: L540cy, 96 h, read-out: IC50, L540cy, HL, Table 6; free drug, 96 hours
VALUE KIND: IC50 (nM)
Your answer is read as nM, so omit the unit and give the number.

MOLECULE SMILES	STUDY TARGET	IC50 / nM
CCCC(=O)O[C@H](C[C@H](C(C)C)N(C)C(=O)[C@@H](NC(=O)[C@H]1CCCCN1C)[C@@H](C)CC)c1nc(C(=O)N[C@@H](Cc2ccccc2)C[C@H](C)C(=O)O)cs1	L540cy Hodgkin lymphoma cells	0.1

For the next question, use this compound.
Identify the reported IC50 for the following entry. CC[C@H](C)[C@H](NC(=O)[C@H]1CCCCN1C)C(=O)N(C)[C@H](C[C@@H](OC(=O)C(C)C)c1nc(C(=O)N[C@@H](Cc2ccccc2)C[C@H](C)C(=O)O)cs1)C(C)C
0.04
